# Tested on: Plasmodium yoelii
# experiment_notes: Antimalarial activity against chloroquine-resistant Plasmodium yoelii infected in po dosed mouse
# Assay type: functional
parameter: ED50 (mg/kg)

{"molecule_smiles": "C[C@H]1[C@@H](CCN2CCN(c3ccccc3)CC2)O[C@@H]2O[C@]3(C)CC[C@H]4[C@H](C)CC[C@@H]1[C@@]24OO3", "assayed_target": "Plasmodium yoelii", "bound_type": "<", "obs_value": 10}
{"molecule_smiles": "C[C@H]1[C@@H](CCN2CCN(c3ccc(F)cc3)CC2)O[C@@H]2O[C@]3(C)CC[C@H]4[C@H](C)CC[C@@H]1[C@@]24OO3", "assayed_target": "Plasmodium yoelii", "bound_type": "<", "obs_value": 10}
{"molecule_smiles": "C[C@H]1[C@@H](CCN2CCN(c3cccc(C(F)(F)F)c3)CC2)O[C@@H]2O[C@]3(C)CC[C@H]4[C@H](C)CC[C@@H]1[C@@]24OO3", "assayed_target": "Plasmodium yoelii", "bound_type": "=", "obs_value": 3.1}
{"molecule_smiles": "CO[C@H]1O[C@@H]2O[C@@]3(C)CC[C@H]4[C@H](C)CC[C@@H]([C@H]1C)[C@@]24OO3", "assayed_target": "Plasmodium yoelii", "bound_type": "=", "obs_value": 6}
{"molecule_smiles": "C[C@H]1[C@@H](CCN2CCN(c3ccc([N+](=O)[O-])cc3)CC2)O[C@@H]2O[C@]3(C)CC[C@H]4[C@H](C)CC[C@@H]1[C@@]24OO3", "assayed_target": "Plasmodium yoelii", "bound_type": "<", "obs_value": 10}

The values you see were collected from ChEMBL document CHEMBL3217710.
